# ASSAY_NOTES: Therapeutic index, ratio of IC50 for cytotoxicity against African green monkey Vero cells to MIC for antimycobacterial activity against Mycobacterium tuberculosis H37Rv
# Format: cell-based
# DETAILS: read-out: TI
I'd be grateful if you could share measured selectivity ratio for these entries.

**Q:** Please look up its selectivity ratio: CCCCCCCCCCc1cn(CC(=O)OCC)nn1
**A:** > 10

**Q:** Please look up its selectivity ratio: CCCCCCCCc1cn(CC(=O)OCC)nn1
**A:** > 10
